Please provide measured total protein half-life in vivo for the entries that follow.
- assay procedure: total protein half-life in vivo (active degradation + dilution); higher = more stable protein
- test conditions: wild type E. coli NCM3722; growth: P-lim chemostat; doubling time 6 h
Please reply with the bare figure in h and do not write the unit itself.

Data request: Return reported total protein half-life in vivo. Input sequence: MKYKHLILSLSLIMLGPLAHAEEIGSVDTVFKMIGPDHKIVVEAFDDPDVKNVTCYVSRAKTGGIKGGLGLAEDTSDAAISCQQVGPIELSDRIKNGKAQGEVVFKKRTSLVFKSLQVVRFYDAKRNALAYLAYSDKVVEGSPKNAISAVPVMPWRQ [P0AE91]
Data returned: 6.41

Data request: Return reported total protein half-life in vivo. Input sequence: MNLDDKSLFLDAMEDVQPLKRATDVHWHPTRNQRAPQRIDTLQLDNFLTTGFLDIIPLSQPLEFRREGLQHGVLDKLRSGKYPQQASLNLLRQPVEECRKMVFSFIQQALADGLRNVLIIHGKGRDDKSHANIVRSYVARWLTEFDDVQAYCTALPHHGGSGACYVALRKTAQAKQENWERHAKRSR
Data returned: 1.28

Data request: Return reported total protein half-life in vivo. Input sequence: MQNITQSWFVQGMIKATTDAWLKGWDERNGGNLTLRLDDADIAPYHDNFHQQPRYIPLSQPMPLLANTPFIVTGSGKFFRNVQLDPAANLGIVKVDSDGAGYHILWGLTNEAVPTSELPAHFLSHCERIKATNGKDRVIMHCHATNLIALTYVLENDTAVFTRQLWEGSTECLVVFPDGVGILPWMVPGTDEIGQATAQEMQKHSLVLWPFHGVFGSGPTLDETFGLIDTAEKSAQVLVKVYSMGGMKQTISREELIALGKRFGVTPLASALAL
Data returned: 4.9
